Each entry below carries its recorded SPOT peptide array binding signal intensity.
# Target Entity: SpLsb4
# Protocol Description: SPOT peptide array binding signal intensity (averaged, normalized) (arbitrary units (background-subtracted, floor 0; scale differs between SH3 domains)); higher = stronger binding of the SH3 domain to the peptide
Measurement Type: SPOT peptide array binding signal intensity

>  <Binder>
KLSRGRYGLPLSSRP

>  <Experimental Result>
48.5

$$$$
>  <Binder>
WRPRIVPILPYITRL

>  <Experimental Result>
157

$$$$
>  <Binder>
NHSRSLFSLPGNQQS

>  <Experimental Result>
20

$$$$
>  <Binder>
RSVKRPRRAPRPVVS

>  <Experimental Result>
2230

$$$$
